- Test system: Klebsiella pneumoniae
- Protocol notes: Antibacterial activity against Klebsiella pneumoniae ATCC 700603 assessed as inhibition of bacterial growth measured after 18 hrs by resazurin dye based analysis
- Format: functional
Measured endpoint: MIC

Exercise: Fill in the blank: the reported MIC of "CCCCCNC(=O)[C@@]1(C)CCC[C@]2(C)c3cc(OC(=O)CCCNCCCCCCNCCCNC(=O)Oc4ccc5c(c4)[C@@]4(C)CCC[C@](C)(C(=O)NCCCCC)[C@@H]4CC5)ccc3CC[C@@H]12.O=C(O)C(F)(F)F.O=C(O)C(F)(F)F" is ____.
Key: > 26.7 µM

Exercise: Which MIC value is on record for "C[C@]1(C(=O)O)CCC[C@]2(C)c3cc(OC(=O)CCCNCCCCCCCCCCNCCCNC(=O)Oc4ccc5c(c4)[C@@]4(C)CCC[C@](C)(C(=O)O)[C@@H]4CC5)ccc3CC[C@@H]12.O=C(O)C(F)(F)F.O=C(O)C(F)(F)F" ?
Key: > 28.7 µM

Exercise: So what's the measured MIC for this one? "C[C@]1(C(=O)NCCCNCCCCCCN)CCC[C@]2(C)c3cc(OC(=O)NCCCNCCCCCCN)ccc3CC[C@@H]12.O=C(O)C(F)(F)F.O=C(O)C(F)(F)F.O=C(O)C(F)(F)F.O=C(O)C(F)(F)F"
Key: > 29.5 µM

====

- Protocol notes: Cytotoxicity against HEK293 cells assessed as cell growth inhibition measured after 20 hrs by resazurin dye based assay
- Type: toxicity
- Recorded conditions: human
Give IC50 at 20 h for every item shown.

Exercise: Param item = "C[C@]1(C(=O)NCCCNCCCCCCCCCCCCNCCCNC(=O)[C@@]2(C)CCC[C@]3(C)c4cc(O)ccc4CC[C@@H]23)CCC[C@]2(C)c3cc(O)ccc3CC[C@@H]12.O=C(O)C(F)(F)F.O=C(O)C(F)(F)F" ; retrieve measured IC50 at 20 h.
Key: > 30.3 µM

Exercise: Any idea what its IC50 at 20 h is? The compound is "C[C@]1(C(=O)NCCCNCCCCCCCCN)CCC[C@]2(C)c3cc(O)ccc3CC[C@@H]12.O=C(O)C(F)(F)F.O=C(O)C(F)(F)F"
Key: > 46.7 µM

Exercise: What IC50 at 20 h value was documented for this compound, "C[C@]1(C(=O)NCCCNCCCCCCCN)CCC[C@]2(C)c3cc(OC(=O)NCCCNCCCCCCCN)ccc3CC[C@@H]12.O=C(O)C(F)(F)F.O=C(O)C(F)(F)F.O=C(O)C(F)(F)F.O=C(O)C(F)(F)F" ?
Key: > 28.7 µM

Exercise: Given the compound "C[C@]1(C(=O)NCCCNCCCCCCCCN)CCC[C@]2(C)c3cc(OC(=O)NCCCNCCCCCCCCN)ccc3CC[C@@H]12.O=C(O)C(F)(F)F.O=C(O)C(F)(F)F.O=C(O)C(F)(F)F.O=C(O)C(F)(F)F" , what is its reported IC50 at 20 h?
Key: > 28 µM

Exercise: So what's the measured IC50 at 20 h for this one? "C[C@]1(C(=O)NCCCNCCCCNCCCNC(=O)[C@@]2(C)CCC[C@]3(C)c4cc(O)ccc4CC[C@@H]23)CCC[C@]2(C)c3cc(O)ccc3CC[C@@H]12.O=C(O)C(F)(F)F.O=C(O)C(F)(F)F"
Key: > 33.9 µM

Exercise: Fill in: IC50 at 20 h of "C[C@@]12CCC[C@](C)(C(=O)O)[C@H]1CCc1ccc(OC(=O)CCCNCCCCNCCCNC(=O)Oc3ccc4c(c3)[C@@]3(C)CCC[C@](C)(C(=O)O)[C@@H]3CC4)cc12.O=C(O)C(F)(F)F.O=C(O)C(F)(F)F" is ___
Key: > 31 µM

Exercise: I am curious: what IC50 at 20 h value has been reported for "C[C@]1(C(=O)NCCCNCCCCCCCCCCCCN)CCC[C@]2(C)c3cc(OC(=O)NCCCNCCCCCCCCCCCCN)ccc3CC[C@@H]12.O=C(O)C(F)(F)F.O=C(O)C(F)(F)F.O=C(O)C(F)(F)F.O=C(O)C(F)(F)F" ?
Key: 0.33 µM

Exercise: Could you tell me which IC50 at 20 h is on file for "C[C@]1(C(=O)NCCCNCCCCCCCCCCN)CCC[C@]2(C)c3cc(O)ccc3CC[C@@H]12.O=C(O)C(F)(F)F.O=C(O)C(F)(F)F" ?
Key: > 44.8 µM

Exercise: Which IC50 at 20 h is listed for "C[C@@]12CCC[C@](C)(C(=O)O)[C@H]1CCc1ccc(OC(=O)CCCNCCCCCCNCCCNC(=O)Oc3ccc4c(c3)[C@@]3(C)CCC[C@](C)(C(=O)O)[C@@H]3CC4)cc12.O=C(O)C(F)(F)F.O=C(O)C(F)(F)F" ?
Key: > 30.2 µM

Exercise: Give its IC50 at 20 h value. Item: "C[C@]1(C(=O)NCCCNCCCCCCCCCCN)CCC[C@]2(C)c3cc(OC(=O)NCCCNCCCCCCCCCCN)ccc3CC[C@@H]12.O=C(O)C(F)(F)F.O=C(O)C(F)(F)F.O=C(O)C(F)(F)F.O=C(O)C(F)(F)F"
Key: 20.6 µM

Exercise: What IC50 at 20 h value was documented for this compound, "C[C@]1(C(=O)O)CCC[C@]2(C)c3cc(OC(=O)CCCNCCCCCCCCCCCCNCCCNC(=O)Oc4ccc5c(c4)[C@@]4(C)CCC[C@](C)(C(=O)O)[C@@H]4CC5)ccc3CC[C@@H]12.O=C(O)C(F)(F)F.O=C(O)C(F)(F)F" ?
Key: > 28 µM

Exercise: Which value of IC50 at 20 h has been reported for "C[C@]1(C(=O)O)CCC[C@]2(C)c3cc(OC(=O)NCCCNCCCCCCCCCCCCN)ccc3CC[C@@H]12.O=C(O)C(F)(F)F.O=C(O)C(F)(F)F" in the records?
Key: > 32.8 µM

Exercise: What value of IC50 at 20 h has been reported for the following compound? "C[C@]1(C(=O)O)CCC[C@]2(C)c3cc(OC(=O)NCCCNCCCCCCCN)ccc3CC[C@@H]12.O=C(O)C(F)(F)F.O=C(O)C(F)(F)F"
Key: > 44.7 µM

Exercise: IC50 at 20 h for "CCCCCNC(=O)[C@@]1(C)CCC[C@]2(C)c3cc(OC(=O)CCCNCCCCCCCNCCCNC(=O)Oc4ccc5c(c4)[C@@]4(C)CCC[C@](C)(C(=O)NCCCCC)[C@@H]4CC5)ccc3CC[C@@H]12.O=C(O)C(F)(F)F.O=C(O)C(F)(F)F" ?
Key: > 26.4 µM

Exercise: IC50 at 20 h for "COC(=O)[C@@]1(C)CCC[C@]2(C)c3cc(OC(=O)CCCNCCCCCCNCCCNC(=O)Oc4ccc5c(c4)[C@@]4(C)CCC[C@](C)(C(=O)OC)[C@@H]4CC5)ccc3CC[C@@H]12.O=C(O)C(F)(F)F.O=C(O)C(F)(F)F" ?
Key: 4.68 µM

Exercise: Would you kindly share the measured IC50 at 20 h for "CCCCCNC(=O)[C@@]1(C)CCC[C@]2(C)c3cc(OC(=O)CCCNCCCCNCCCNC(=O)Oc4ccc5c(c4)[C@@]4(C)CCC[C@](C)(C(=O)NCCCCC)[C@@H]4CC5)ccc3CC[C@@H]12.O=C(O)C(F)(F)F.O=C(O)C(F)(F)F" ?
Key: > 27.4 µM

====

- Test system: Cryptococcus neoformans
- Protocol notes: Antifungal activity against Cryptococcus neoformans ATCC 208821 assessed as fungal growth inhibition incubated for 36 hrs by resazurin dye based analysis
- Format: functional
Measured endpoint: MIC (µM)
Record the value in µM, omitting the unit from your answer.

Exercise: Any idea what MIC was measured for "COC(=O)[C@@]1(C)CCC[C@]2(C)c3cc(OC(=O)CCCNCCCCNCCCNC(=O)Oc4ccc5c(c4)[C@@]4(C)CCC[C@](C)(C(=O)OC)[C@@H]4CC5)ccc3CC[C@@H]12.O=C(O)C(F)(F)F.O=C(O)C(F)(F)F" ?
Key: 1.89

Exercise: Using the record for "COC(=O)[C@@]1(C)CCC[C@]2(C)c3cc(OC(=O)CCCNCCCCCCNCCCNC(=O)Oc4ccc5c(c4)[C@@]4(C)CCC[C@](C)(C(=O)OC)[C@@H]4CC5)ccc3CC[C@@H]12.O=C(O)C(F)(F)F.O=C(O)C(F)(F)F" , report its MIC.
Key: 0.46

Exercise: Return reported MIC; argument: "COC(=O)[C@@]1(C)CCC[C@]2(C)c3cc(OC(=O)CCCNCCCCCCCCNCCCNC(=O)Oc4ccc5c(c4)[C@@]4(C)CCC[C@](C)(C(=O)OC)[C@@H]4CC5)ccc3CC[C@@H]12.O=C(O)C(F)(F)F.O=C(O)C(F)(F)F"
Key: 0.45

====

- System: Klebsiella pneumoniae
- Protocol notes: Antibacterial activity against Klebsiella pneumoniae ATCC 700603 assessed as inhibition of bacterial growth measured after 18 hrs by resazurin dye based analysis
- Format: functional
So I've got a bunch of molecules here, and I need their MIC values.

Exercise: Value lookup for MIC; key = "C[C@]1(C(=O)O)CCC[C@]2(C)c3cc(OC(=O)NCCCNCCCCCCN)ccc3CC[C@@H]12.O=C(O)C(F)(F)F.O=C(O)C(F)(F)F"
Key: > 45.6 µM

Exercise: Using the record for "C[C@]1(C(=O)NCCCNCCCCCCCCN)CCC[C@]2(C)c3cc(OC(=O)NCCCNCCCCCCCCN)ccc3CC[C@@H]12.O=C(O)C(F)(F)F.O=C(O)C(F)(F)F.O=C(O)C(F)(F)F.O=C(O)C(F)(F)F" , report its MIC.
Key: > 28 µM

Exercise: Reported MIC for "C[C@]1(C(=O)NCCCNCCCCCCCCCCN)CCC[C@]2(C)c3cc(OC(=O)NCCCNCCCCCCCCCCN)ccc3CC[C@@H]12.O=C(O)C(F)(F)F.O=C(O)C(F)(F)F.O=C(O)C(F)(F)F.O=C(O)C(F)(F)F" : what is it?
Key: > 26.7 µM

Exercise: For the molecule shown here, "C[C@]1(C(=O)O)CCC[C@]2(C)c3cc(OC(=O)CCCNCCCCCCCCCCCCNCCCNC(=O)Oc4ccc5c(c4)[C@@]4(C)CCC[C@](C)(C(=O)O)[C@@H]4CC5)ccc3CC[C@@H]12.O=C(O)C(F)(F)F.O=C(O)C(F)(F)F" , give the reported MIC.
Key: > 28 µM

Exercise: Query (molecule): "C[C@]1(C(=O)NCCCNCCCCCCCCN)CCC[C@]2(C)c3cc(O)ccc3CC[C@@H]12.O=C(O)C(F)(F)F.O=C(O)C(F)(F)F" ; field requested: MIC
Key: > 46.7 µM
